# System: SIDSP Sida spinosa
# RUN_DESCRIPTION: Post-emergence crop and weed test (Example 15)
# Format: in vivo
# EXPERIMENTAL_CONDITIONS: 360 h, 125 g/ha, after 15 days, read-out: Percentage damage SIDSP
The compounds listed here are annotated with their pest or weed control at 125 g/ha.
Numbers only; they are read as %.

Known pest or weed control at 125 g/ha results, listed for orientation:
Query :: Specify reported pest or weed control at 125 g/ha for the compound shown: C/C=C/c1c(N)nc(-c2ccc(Cl)c(OC)c2F)nc1C(=O)OC
Result :: 80

Query :: Specify reported pest or weed control at 125 g/ha for the compound shown: C=Cc1c(NCc2ccco2)nc(-c2ccc(Cl)c(OC)c2F)nc1C(=O)OC
Result :: 80

Query :: Specify reported pest or weed control at 125 g/ha for the compound shown: C/C=C/c1c(N)nc(C2CC2)nc1C(=O)OC [Ref. Ex. D, reference compound]
Result :: 60

Query :: Specify reported pest or weed control at 125 g/ha for the compound shown: C=Cc1c(N)nc(-c2ccc(Cl)c(F)c2)nc1C(=O)OC
Result :: 80

Query :: Specify reported pest or weed control at 125 g/ha for the compound shown: COC(=O)c1nc(-c2ccc(Cl)c(OC)c2F)nc(NCc2ccco2)c1Cl [Ref. Ex. E, reference compound]
Result :: 90

Then there is this compound:
Query :: Specify reported pest or weed control at 125 g/ha for the compound shown: C=Cc1c(NCc2ccco2)nc(C2CC2)nc1C(=O)OC [Ref. Ex. F, reference compound]
Result :: 60

----------
# Test system: Solanum nigrum (SOLNI)
# RUN_DESCRIPTION: Post-emergence biological efficacy (Example 14)
# Format: in vivo
# EXPERIMENTAL_CONDITIONS: Solanum nigrum, 312 h; post-emergence, 1,000 g/ha, after 13 days; read-out: Percentage damage SOLNI
The compounds listed here are annotated with their pest or weed control at 1000 g/ha.

Known pest or weed control at 1000 g/ha results, listed for orientation:
Query :: Find the measured pest or weed control at 1000 g/ha of C=Cc1c(NCc2ccco2)nc(-c2ccc(Cl)c(OC)c2F)nc1C(=O)OC with Solanum nigrum (SOLNI) as test system.
Result :: 90%

Query :: Find the measured pest or weed control at 1000 g/ha of C=Cc1c(NCc2ccccc2[N+](=O)[O-])nc(-c2ccc(Cl)c(N(C)C)c2F)nc1C(=O)OC with Solanum nigrum (SOLNI) as test system.
Result :: 80%

Query :: Find the measured pest or weed control at 1000 g/ha of C/C=C\c1c(N)nc(-c2ccc(Cl)c(N(C)C)c2F)nc1C(=O)OC with Solanum nigrum (SOLNI) as test system.
Result :: 80%

Query :: Find the measured pest or weed control at 1000 g/ha of C=Cc1c(N)nc(-c2ccc(Cl)c(N(C)C)c2F)nc1C(=O)OC with Solanum nigrum (SOLNI) as test system.
Result :: 100%

Query :: Find the measured pest or weed control at 1000 g/ha of C=Cc1c(NCc2ccco2)nc(-c2ccc(Cl)c(OC)c2F)nc1C(=O)OCCOCC with Solanum nigrum (SOLNI) as test system.
Result :: 50%

Query :: Find the measured pest or weed control at 1000 g/ha of C=Cc1c(NCc2ccco2)nc(-c2ccc(Cl)c(N(C)C)c2F)nc1C(=O)OC with Solanum nigrum (SOLNI) as test system.
Result :: 100%

Query :: Find the measured pest or weed control at 1000 g/ha of C/C=C/c1c(N)nc(-c2ccc(Cl)c(N(C)C)c2F)nc1C(=O)OC with Solanum nigrum (SOLNI) as test system.
Result :: 80%

Then there is this compound:
Query :: Find the measured pest or weed control at 1000 g/ha of C=Cc1c(NCc2ccccc2[N+](=O)[O-])nc(-c2ccc(Cl)c(OC)c2F)nc1C(=O)OC with Solanum nigrum (SOLNI) as test system.
Result :: 90%
